Experiment: Solubility test in coating solvent (2,2,3,3-tetrafluoropropanol)
Type: physicochemical
Details: 0.7% by weight, 20° C., result in words
propertyName: solubility in a coating solvent at a concentration of 0.7% by weight

The cases that follow already have their solubility in a coating solvent at a concentration of 0.7% by weight on record.
CN1C(=CC=[N+]2N=C(c3ccccc3)[O][Cu-2]23[O]C(c2ccccc2)=N[N+]3=CC=C2N(C)c3ccccc3C2(C)C)C(C)(C)c2ccccc21 (stereo not drawn) [Compound A-2]; completely dissolved
CCN1C(=CC=[N+]2N=C(c3ccc(C(=O)OC)cc3)[O][Co-2]23[O]C(c2ccc(C(=O)OC)cc2)=N[N+]3=CC=C2N(CC)c3ccc(OC)cc3C2(C)Cc2ccccc2)C(C)(Cc2ccccc2)c2cc(OC)ccc21 (stereo not drawn) [Compound A-186]; completely dissolved
CCN1C(=CC=[N+]2N=C(c3cccc(OCCOC)c3)[O][Co-2]23[O]C(c2cccc(OCCOC)c2)=N[N+]3=CC=C2N(CC)c3ccc(OC)cc3C2(C)Cc2ccccc2)C(C)(Cc2ccccc2)c2cc(OC)ccc21 (stereo not drawn) [Compound A-212]; completely dissolved
CCN1C(=CC=[N+]2N=C(c3ccccc3)[O][Co-2]23[O]C(c2ccccc2)=N[N+]3=CC=C2N(CC)c3ccc(OC)cc3C2(C)C)C(C)(C)c2cc(OC)ccc21 (stereo not drawn) [Compound A-86]; completely dissolved
CCN(CC)C(=O)c1ccc(C2=N[N+](=CC=C3N(CC)c4ccc(OC)cc4C3(C)Cc3ccccc3)[Co-2]3([O]2)[O]C(c2ccc(C(=O)N(CC)CC)cc2)=N[N+]3=CC=C2N(CC)c3ccc(OC)cc3C2(C)Cc2ccccc2)cc1 (stereo not drawn) [Compound A-159]; completely dissolved

In: Consider the compound CCOc1ccccc1C1=N[N+](=CC=C2N(CC)c3c(ccc4ccccc34)C2(C)C)[Co-2]2([O]1)[O]C(c1ccccc1OCC)=N[N+]2=CC=C1N(CC)c2c(ccc3ccccc23)C1(C)C (stereo not drawn) [Compound A-88] and give its measured solubility in a coating solvent at a concentration of 0.7% by weight.
Out: completely dissolved

In: Consider the compound CCOC(=O)CC1=N[N+](=CC=C2N(CC)c3ccccc3C2(C)Cc2ccccc2)[Co-2]2([O]1)[O]C(CC(=O)OCC)=N[N+]2=CC=C1N(CC)c2ccccc2C1(C)Cc1ccccc1 (stereo not drawn) [Compound A-11] and give its measured solubility in a coating solvent at a concentration of 0.7% by weight.
Out: completely dissolved

In: Consider the compound CCN1C(=CC=[N+]2N=C(c3ccc(C(=O)OC)cc3)[O][Co-2]23[O]C(c2ccc(C(=O)OC)cc2)=N[N+]3=CC=C2N(CC)c3ccc(OC)cc3C2(C)Cc2cccc(F)c2)C(C)(Cc2cccc(F)c2)c2cc(OC)ccc21 (stereo not drawn) [Compound A-152] and give its measured solubility in a coating solvent at a concentration of 0.7% by weight.
Out: completely dissolved

----------
Experiment: Solubility test in coating solvent (2,2,3,3-tetrafluoropropanol)
Type: physicochemical
Details: 1.0% by weight, 20° C., result in words
propertyName: solubility in a coating solvent at a concentration of 1.0% by weight

CCOc1ccccc1C1=N[N+](=CC=C2N(CC)c3c(ccc4ccccc34)C2(C)C)[Co-2]2([O]1)[O]C(c1ccccc1OCC)=N[N+]2=CC=C1N(CC)c2c(ccc3ccccc23)C1(C)C (stereo not shown); completely dissolved
CCOC(=O)CC1=N[N+](=CC=C2N(C)c3ccccc3C2(C)C)[Co-2]2([O]1)[O]C(CC(=O)OCC)=N[N+]2=CC=C1N(C)c2ccccc2C1(C)C (stereo not shown); completely dissolved
